Would you mind telling me the reported max response of each entry?
System: KB-3-1
TEST_SUMMARY: Cytotoxic Profiling of Annotated Libraries Using Quantitative High-Throughput Screening (AID 1296008); also: % is scaled to controls: 0 for no effect and ±100 for the full control effect; nearly all actives have a fitted effect of over 60% in size
RECORDED_CONDITIONS: Five cell lines viability, CellTiter-Glo ATP luminescence, 48-72 h; stronger effect = lower value
Inconclusive results are not listed.
Return type: number; implicit unit %.

Task: Entry under review: CC(C)(OC1OC(CO)C(O)C(O)C1O)C1CCC(O)(CO)C2CC(=O)C(C)(O)C2C1 (stereo not given) . Reported max response?
Output: 2.59

Task: Entry under review: C=C(C)C1Cc2c(ccc3c2OCC(c2ccc(O)cc2O)C3)O1 (stereo not given) . Reported max response?
Output: -21.6

Task: Entry under review: C=C(C)C1CCC2(C(=O)OC3OC(COC4OC(CO)C(O)C(O)C4O)C(OC4OC(C)C(O)C(O)C4O)C(O)C3O)CCC3(C(=O)O)C(CCC4C5(C)CCC(=O)C(C)(C)C5CCC43C)C12 (stereo not given) . Reported max response?
Output: 1.44

Task: Entry under review: "COc1cc(/C=C/C(=O)O[C@@H]2C[C@@](O)(C(=O)O)C[C@@H](O)[C@@H]2O)ccc1O" . Reported max response?
Output: 0.239

Task: Entry under review: "C=C1C[C@@]2(O)O[C@@]3(C[C@H]2C(C)C)[C@@H](C)CC[C@@H]13" . Reported max response?
Output: 9.57

Task: Entry under review: C=CC1(C)C=C2CC[C@H]3[C@@](C)(C(=O)O)CCC[C@]3(C)C2CC1 (stereo not given in full) . Reported max response?
Output: 5.04

Task: Entry under review: "CCOC(=O)c1ccc(NC2CCCCC2)c(N)c1" . Reported max response?
Output: -6.34

Task: Entry under review: CC1C(=O)OCC2=CC[N+]3([O-])CCC(OC(=O)C(C)(O)C1(C)O)C23 (stereo not given) . Reported max response?
Output: 7.03

Task: Entry under review: CC(O)C1CCC2C3CCC4CC(OC5OC(C(=O)O)C(O)C(O)C5O)CCC4(C)C3CCC12C (stereo not given) . Reported max response?
Output: -9.6

Task: Entry under review: "COc1c(C)c(OCC=C(C)C)cc2c1CNC2=O" . Reported max response?
Output: -3.05

Task: Entry under review: O=C(/C=C/c1ccc(O)c(O)c1)O[C@@H]1[C@@H](O)[C@H](OC2CCCCC2O)O[C@H](CO)[C@H]1O (stereo not given in full) . Reported max response?
Output: 9.07

Task: Entry under review: "Nc1c(-c2ccccc2)nc(Cl)c2c(O)n[nH]c(=O)c12" . Reported max response?
Output: 9.61

Task: Entry under review: C=C1C2(C)CC3C4(C)OC(C5OC56C4=CC(=O)OC6(C)C)C3(C)C13C(=O)OC(C)C3(O)C2=O (stereo not given) . Reported max response?
Output: 7.16

Task: Entry under review: NC1=NC2(c3cc(NC(=O)c4ccc(F)cn4)ccc3F)COCC2CS1 (stereo not given) . Reported max response?
Output: -4.81

Task: Entry under review: CC1=C2C[C@H]3OC(=O)[C@H](O)[C@@]4(O)[C@@H](C)[C@@H](O)[C@H](O)C([C@@]2(C)[C@H](O)[C@@H](O)C1)[C@@]34C (stereo not given in full) . Reported max response?
Output: 9.81

Task: Entry under review: "Cc1occc1C(=O)n1ccnc1" . Reported max response?
Output: 0.152

Task: Entry under review: COc1ccc(C2(O)c3ccccc3NC(=O)C2OC)cc1 (stereo not given) . Reported max response?
Output: 5.23

Task: Entry under review: COc1cc(/C=C/C(=O)OC[C@H]2O[C@@H](OC3OC=C(C(=O)O)C4C(O)CC(C)(O)C34)[C@H](O)[C@@H](O)[C@@H]2O)cc(OC)c1O (stereo not given in full) . Reported max response?
Output: 9.94

Task: Entry under review: "O=C(Cc1ccc(Cl)cc1)Nc1cnccc1C(=O)O" . Reported max response?
Output: 1.29

Task: Entry under review: CC(C)/C=C1/NC(=O)C(C(C)C)n2c1nc1c(O)cccc1c2=O (stereo not given) . Reported max response?
Output: 3.96

###

Tested on: Tov-21-G
TEST_SUMMARY: Primary qHTS to identify gynecologic anti-cancer compounds using libraries of approved drugs and bioactive compounds (AID 1345084); also: % is scaled to controls: 0 for no effect and ±100 for the full control effect; nearly all actives have a fitted effect of over 55% in size
RECORDED_CONDITIONS: Gynecologic cancer cell panel viability, ATPlite luminescence, 48 h; series mostly up to 57.5 µM
Inconclusive results are not listed. Active and inactive are the calls of the source. The call rests on the fitted dose curve; in most records, active means well fitted cell-killing curve with a large enough effect; inconclusive means small, poorly fitted or top-dose-only effect, or effect the other way; inactive means flat fitted curve, though single readings scatter.
OUTCOME_MEASURE: activity change, negative = cytotoxicity

In the examples that follow, each entry is paired with its recorded activity change, negative = cytotoxicity.
1. CC(CC(C)O[C@@H]1O[C@H](CO)[C@@H](O)[C@H](O)[C@H]1O)OC(=O)/C=C/c1ccc(O)cc1 (stereo partly specified) ... inactive
2. C=C1CC[C@@]2(OC1)O[C@H]1CC3[C@@H]4CC=C5C[C@@H](O)C[C@@H](O[C@@H]6OC[C@H](O)[C@H](O)[C@H]6O[C@@H]6O[C@@H](C)[C@H](O)[C@@H](O)[C@H]6O)[C@]5(C)C4CC[C@]3(C)[C@H]1[C@@H]2C (stereo partly specified) ... inactive
3. COc1cc(C(CO)CO[C@@H]2O[C@H](CO)[C@@H](O)[C@H](O)[C@H]2O)ccc1O (stereo partly specified) ... inactive
4. O=C(NC1Cc2ccccc2N(C[C@@H](O)CO)C1=O)c1cc2cc(Cl)sc2[nH]1 (stereo partly specified) ... inactive

Task: Form entry - test system: Tov-21-G; read-out: activity change, negative = cytotoxicity; compound: COc1ccc(OC)c(C2C(C#N)=C(N)Oc3n[nH]c(-c4ccc5ccccc5c4)c32)c1 (stereo unspecified)
Output: inactive

Task: Form entry - test system: Tov-21-G; read-out: activity change, negative = cytotoxicity; compound: C=CC(C)(CC/C=C(\C)C(=O)OC[C@H]1O[C@@H](OC(C)(C=C)CC/C=C(\C)C(=O)O[C@H]2[C@H](O)[C@@H](O)[C@H](OC(C)(C=C)CC/C=C(\C)C(=O)O)O[C@@H]2CO)[C@H](O)[C@@H](O)[C@@H]1O)O[C@@H]1O[C@H](CO)[C@@H](O)[C@H](O)[C@H]1O (stereo partly specified)
Output: -2.47% [at 11.6 µM] (inactive)

###

System: NIH3T3
TEST_SUMMARY: qHTS assay to identify novel small-molecules to repurpose for Merkel cell carcinoma treatment (AID 1296009); also: nearly all actives have a fitted effect of over 60% in size
RECORDED_CONDITIONS: MCC and control cell lines, CellTiter-Glo viability, 72 h; at 44.8 µM (top of the series) unless noted
Results filed as inconclusive are left out. Active and inactive are the calls of the source. The call rests on the fitted dose curve; in most records, active means well fitted inhibition curve with a large enough effect; inconclusive means small, poorly fitted or top-dose-only effect; inactive means flat fitted curve, though single readings scatter.
OUTCOME_MEASURE: outcome

In the examples that follow, each entry is paired with its recorded outcome.
1. NCCCCN(Cc1nc2ccccc2[nH]1)[C@H]1CCCc2cccnc21 ... inactive [at 17.4 µM]
2. COC(=O)C1=CO[C@@H](O[C@@H]2O[C@H](CO)[C@@H](O)[C@H](O)[C@H]2O)[C@H]2[C@@H]1C=C[C@]21C=C([C@H](C)OC(=O)/C=C/c2ccc(O[C@@H]3O[C@H](CO)[C@@H](O)[C@H](O)[C@H]3O)cc2)C(=O)O1 ... inactive [at 17.4 µM]
3. CC(C)(OC1OC(CO)C(O)C(O)C1O)C1CCC(O)(CO)C2CC(=O)C(C)(O)C2C1 (stereo not drawn) ... inactive [at 17.4 µM]
4. O=[N+]([O-])c1cc(Cl)ccc1S(=O)(=O)N1CCN(Cc2ccccc2)CC1 ... inactive
5. CC1=CCC[C@@H]2[C@](CCc3ccoc3)(C(=O)O)[C@H](C)CC[C@@]12C ... inactive
6. CC(O)C(=O)/C=C/C=C/C(=O)OC1C=C2COC(=O)C2(O)C2(C)CCCC(C)(C)C12 (stereo not drawn) ... inactive [at 17.4 µM]
7. COc1cc(O)cc(C)c1C(=O)O[C@H]1[C@@H](O)[C@@H](n2ccc(=O)[nH]c2=O)O[C@@H]1CO ... inactive [at 17.4 µM]

Kindly review the next compound as well.
Task: Entry under review: "Cc1oc2nc3c(c(NC(=O)CN4CCCC4=O)c2c1C)CCCC3" . Reported outcome?
Output: inactive

###

System: CAOV3
TEST_SUMMARY: Primary qHTS to identify gynecologic anti-cancer compounds using libraries of approved drugs and bioactive compounds (AID 1345084); also: % is scaled to controls: 0 for no effect and ±100 for the full control effect; nearly all actives have a fitted effect of over 55% in size
RECORDED_CONDITIONS: Gynecologic cancer cell panel viability, ATPlite luminescence, 48 h; series mostly up to 57.5 µM
Results filed as inconclusive are left out. Calls of active or inactive are those of the source. Calls come from the whole dose curve; as a rule, active = well fitted cell-killing curve with a large enough effect; inconclusive = small, poorly fitted or top-dose-only effect, or effect the other way; inactive = flat fitted curve, though single readings scatter.
OUTCOME_MEASURE: activity change, negative = cytotoxicity

1) CC1(C)CCCC2(C)c3c4c(c(=O)oc(=O)c3=CCC12)=CCC1C(C)(C)CCCC41C (stereo not drawn) ... inactive
2) C/C(=C\CC[C@H](CO)[C@@H]1CC[C@]2(C)C3=C(CC[C@@]12C)[C@@]1(C)CCC(=O)C(C)(C)C1CC3)C(=O)O (stereo partly drawn) ... inactive
3) COC(=O)C1=CO[C@@H](O[C@@H]2O[C@H](CO)[C@@H](O)[C@H](O)[C@H]2O)[C@H]2[C@@H]1C=C[C@]21C=C([C@H](C)OC(=O)/C=C/c2ccc(O[C@@H]3O[C@H](CO)[C@@H](O)[C@H](O)[C@H]3O)cc2)C(=O)O1 ... inactive
4) CC(=O)O[C@@H]1C[C@@H](C)[C@](O)(CCC2=CC(=O)OC2)[C@@]2(C)CCCC(C)(C)C12 (stereo partly drawn) ... inactive
5) Cc1c(C)c(NCC(=O)N(C)C2CCN(Cc3ccc(C(N)=O)cc3)CC2)c(C)c(C)c1N ... inactive

Task: Form entry - test system: CAOV3; read-out: activity change, negative = cytotoxicity; molecule: "C=CCC/C=C/C#CCCCCCCCC[C@H]1C(=O)O[C@H](C)[C@@H]1O"
Output: inactive

Task: Form entry - test system: CAOV3; read-out: activity change, negative = cytotoxicity; molecule: CCC(C)/C=C(C)/C=C/C1=CC2=C(Cl)C(=O)C(C)(OC(C)=O)C(=O)C2=CN1CCCCC(N)C(=O)O (stereo not drawn)
Output: inactive

Task: Form entry - test system: CAOV3; read-out: activity change, negative = cytotoxicity; molecule: CC(C)C1NC(=O)C(CC2(O)c3ccccc3N3C(=O)C(Cc4ccccc4)NC32)NC1=O (stereo not drawn)
Output: inactive
